# Tested on: M. tuberculosis H37Rv (ATCC 27294)
# procedureDetails: microbe, parasite or virus in culture
# Assay type: cell-based
# conditionDescription: Mycobacterium tuberculosis, single determinations; read-out: Mtb MIC
*1 amine or outer side, *2 acyl side, *3 side chain or, on linkers, in order; H or OH if unused. Where a SMILES comes first, the peptide text is derived from it. [ ]: non-standard residue; d: D form. NMeTrp(1-Me) = CN[C@@H](Cc1cn(C)c2ccccc12)C(=O)O; X4 = C=CCO[C@H](c1ccccc1)[C@H](N[*:1])C(=O)[*:2]; NMeLeu(5-OH,4R) = CN[C@@H](C[C@@H](C)CO)C(=O)O; Phe(βR-OMe) = CO[C@H](c1ccccc1)[C@H](N)C(=O)O; Trp(1-Me) = Cn1cc(C[C@H](N)C(=O)O)c2ccccc21; NMeL = CN[C@@H](CC(C)C)C(=O)O; Pra = C#CC[C@H](N)C(=O)O
# MIC annotations

| compound | experimentalTarget | measuredEndpoint | observed |
| --- | --- | --- | --- |
| CO[C@H](c1ccccc1)[C@@H]1NC(=O)[C@H](C)NC(=O)[C@H](C[C@@H](C)CO)N(C)C(=O)[C@H](Cc2cn(C)c3ccccc23)NC(=O)[C@H](Cc2cn(CCOCCOCCn3cc(C[C@@H]4NC(=O)[C@H](CC(C)C)N(C)C(=O)[C@H](C(C)C)NC(=O)[C@H]([C@H](OC)c5ccccc5)NC(=O)[C@H](C)NC(=O)[C@H](C[C@@H](C)CO)N(C)C(=O)[C@H](Cc5cn(C)c6ccccc56)NC4=O)nn3)nn2)NC(=O)[C@H](CC(C)C)N(C)C(=O)[C@H](C(C)C)NC1=O | M. tuberculosis H37Rv (ATCC 27294) | MIC | 0.097 µM |
| C=CCO[C@H](c1ccccc1)[C@@H]1NC(=O)[C@H](C)NC(=O)[C@H](C[C@@H](C)CO)N(C)C(=O)[C@H](Cc2cn(C)c3ccccc23)NC(=O)[C@H](C(C)C)NC(=O)[C@H](CC(C)C)N(C)C(=O)[C@H](C(C)C)NC1=O [Compound 14] (cyclo(A[X4]V[NMeL]V[Trp(1-Me)][NMeLeu(5-OH,4R)])) | M. tuberculosis H37Rv (ATCC 27294) | MIC | 3.12 µM |
| CO[C@H](c1ccccc1)[C@@H]1NC(=O)[C@H](C)NC(=O)[C@H](C[C@@H](C)CO)N(C)C(=O)[C@H](Cc2cn(C)c3ccccc23)NC(=O)[C@H](CCC(=O)N(C)C)NC(=O)[C@H](CC(C)C)N(C)C(=O)[C@H](C(C)C)NC1=O [SI-74] (cyclo(A[Phe(βR-OMe)]V[NMeL]E(NMe2)[Trp(1-Me)][NMeLeu(5-OH,4R)])) | M. tuberculosis H37Rv (ATCC 27294) | MIC | 3.12 µM |
| C#CC[C@@H]1NC(=O)[C@H](CC(C)C)N(C)C(=O)[C@H](C(C)C)NC(=O)[C@H]([C@H](OC)c2ccccc2)NC(=O)[C@H](C)NC(=O)[C@H](C[C@@H](C)CO)N(C)C(=O)[C@H](Cc2cn(C)c3ccccc23)NC1=O [Compound 10] (cyclo(A[Phe(βR-OMe)]V[NMeL][Pra][Trp(1-Me)][NMeLeu(5-OH,4R)])) | M. tuberculosis H37Rv (ATCC 27294) | MIC | 3.12 µM |
| C#CC[C@@H]1NC(=O)[C@H](CC(C)C)N(C)C(=O)[C@H](C(C)C)NC(=O)[C@H]([C@H](OC)c2ccccc2)NC(=O)[C@H](C)NC(=O)[C@H](C[C@@H](C)CO)N(C)C(=O)[C@H](Cc2cn(C)c3ccccc23)N(C)C1=O [Compound 20] (cyclo(A[Phe(βR-OMe)]V[NMeL][Pra][NMeTrp(1-Me)][NMeLeu(5-OH,4R)])) | M. tuberculosis H37Rv (ATCC 27294) | MIC | 50 µM |

Ask | I'd like to know its MIC. The compound in question is COC(c1ccccc1)C1NC(=O)C(C)NC(=O)C(CC(C)CO)N(C)C(=O)C(Cc2cn(C)c3ccccc23)NC(=O)C(Cc2cn(CCCCCn3cc(CC4NC(=O)C(CC(C)C)N(C)C(=O)C(C(C)C)NC(=O)C(C(OC)c5ccccc5)NC(=O)C(C)NC(=O)C(CC(C)CO)N(C)C(=O)C(Cc5cn(C)c6ccccc56)NC4=O)nn3)nn2)NC(=O)C(CC(C)C)N(C)C(=O)C(C(C)C)NC1=O (stereo not shown)
Reply | 0.097 µM

Ask | Data request, read-out MIC, for CO[C@H](c1ccccc1)[C@@H]1NC(=O)[C@H](C)NC(=O)[C@H](C[C@@H](C)CO)N(C)C(=O)[C@H](Cc2cn(C)c3ccccc23)N(C)C(=O)[C@H](CCC(=O)N(C)C)NC(=O)[C@H](CC(C)C)N(C)C(=O)[C@H](C(C)C)NC1=O [SI-76] (cyclo(A[Phe(βR-OMe)]V[NMeL]E(NMe2)[NMeTrp(1-Me)][NMeLeu(5-OH,4R)]))
Reply | 6.25 µM
